- Test system: SF-539
- PROTOCOL SUMMARY: NCI tumour cell line growth inhibition, 48 h
Active and inactive are the calls of the source. Rule as the data show it: active = GI50 up to about 1.1 µM and inactive = higher.
Listing: GI50 of selected compounds

Take a look at these entries with their results.
# COMPOUND, GI50
records = [
    ("Cc1ccc(NC(=O)/C(Cc2nc3ccc([N+](=O)[O-])cc3nc2O)=N\\NC(=O)C[n+]2ccccc2)c(C)c1", "77.1 µM (inactive)"),
    ("COc1cc2c(c(O)c1OC)C(=O)C1CCC(=O)N1C2c1cccc2ccccc12 (centres undefined)", "41.5 µM (inactive)"),
    ("Cc1ccc(C(=O)c2[nH]c(NCc3ccccc3)c(C(=S)Nc3ccccc3)c2N)cc1", "2.86 µM (inactive)"),
]

[ask] Which GI50 value belongs to O=C(Nc1ccc(Cl)cc1Cl)C1C(=O)C(=O)N(c2ccc(Cl)cc2Cl)C1=O (centres undefined) ?
[reply] > 100 µM (inactive)
